# target: PD-L1 His protein / PD-1 Fc protein (Homo sapiens, UniProt Q9NZQ7)
# Sequence (Q9NZQ7 19-238 limits assumed): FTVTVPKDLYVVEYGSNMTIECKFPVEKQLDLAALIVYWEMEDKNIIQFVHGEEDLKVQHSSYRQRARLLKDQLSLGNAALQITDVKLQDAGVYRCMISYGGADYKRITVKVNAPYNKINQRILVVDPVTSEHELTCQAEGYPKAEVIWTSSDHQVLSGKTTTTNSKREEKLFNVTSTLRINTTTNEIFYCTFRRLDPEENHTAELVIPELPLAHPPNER
# assayOverview: HTRF Assay (PD-1/PD-L1 interaction)
# measurementConditions: PD-L1 His 6 nM, PD-1 Fc 6 nM
pIC50: −log10 of the molar value.
Output criterion met for pIC50 not less than 8; output criterion not met otherwise.

q: Assess whether reported pIC50 for "COc1nc(-c2cccc(-c3cccc(-c4ccc5c(n4)CCC[C@@H]5NC[C@@H]4CCC(=O)N4)c3Cl)c2Cl)ccc1CNC[C@@H]1CCC(=O)N1" sits at 8 or higher.
a: criterion not met

q: In plain terms: is recorded pIC50 at least 8 for "COc1cc(-c2cccc(-c3cccc(-c4ccc(CNC[C@@H]5CCC(=O)N5)c(OC)n4)c3Cl)c2Cl)cc2c1CN(CCC1(O)CCC1)CC2" ?
a: criterion met

q: Threshold query (pIC50 >= 8) on "COc1nc(-c2cccc(-c3cccc(-c4ccn5c(=O)c(CNC[C@@H]6CCC(=O)N6)cnc5c4)c3Cl)c2C#N)ccc1CNC[C@@H]1CCC(=O)N1"
a: criterion met

q: Is it the case that "COc1nc(-c2cccc(-c3cccc(-c4ccc5nc(CNC[C@H](C)O)cn5n4)c3Cl)c2Cl)ccc1CNC[C@H](C)O" has pIC50 reaching or exceeding 8?
a: criterion met

q: Would you say "COc1nc(-c2cccc(-c3cccc(-c4cc5c(=O)n(C)c(CNCCN6CCCC6=O)nn5c4)c3Cl)c2Cl)ccc1CNC[C@@H]1CCC(=O)N1" shows pIC50 at minimum 8?
a: criterion not met

q: Determine whether this compound has pIC50 no lower than 8: COc1nc(-c2cccc(-c3cccc(-c4cnc5c(c4)CCCC5NC[C@@H]4CCC(=O)N4)c3Cl)c2Cl)ccc1CNC[C@@H]1CCC(=O)N1 (stereo partly drawn)
a: criterion not met

q: Check the entry "O=C1CC[C@@H](CNCc2ccc(-c3cccc(-c4cccc(-c5ccn6c(=O)c(CNC[C@@H]7CCC(=O)N7)cnc6c5)c4Cl)c3Cl)cc2OC(F)F)N1" : does pIC50 equal or exceed 8?
a: criterion met

q: Is reported pIC50 greater than or equal to 8 here: "COc1cc(-c2cccc(-c3cccc(-c4ccc(CNC[C@@H]5CCC(=O)N5)c(OC)n4)c3Cl)c2Cl)cc2c1CCN(C[C@@H]1CCC(=O)N1)C2"
a: criterion not met

q: Does the compound "COc1nc(-c2cccc(-c3cccc(-c4ccn5c(=O)c(CNC6CCN(C(C)=O)CC6)cnc5c4)c3Cl)c2Cl)ccc1CNC1CCN(C(C)=O)CC1" have recorded pIC50 that is 8 or more?
a: criterion met

q: Has "COc1nc(-c2cccc(-c3cccc(-c4ccc5nn(CCCN6C(=O)c7ccccc7C6=O)c(=O)n5c4)c3Cl)c2Cl)ccc1CNC[C@@H]1CCC(=O)N1" a recorded pIC50 greater than or equal to 8?
a: criterion not met

q: API: above_or_equal(metric=pIC50, cutoff=8) for item "COc1nc(-c2cccc(-c3cccc(-c4ccn5c(=O)c(CNC[C@@H]6CCCO6)cnc5c4)c3Cl)c2Cl)ccc1CNC[C@@H]1CCC(=O)N1"
a: criterion not met

q: Evaluate "COc1nc(-c2cccc(-c3cccc(-c4cc5c(=O)n(C)c(CN(C)C[C@H](C)O)nn5c4)c3Cl)c2Cl)ccc1CNC[C@@H]1CCC(=O)N1" : pIC50 at minimum 8?
a: criterion not met
